biological target: recombinant human STIM1 and Orai1 (HEK-293 stable cells; JR251) (Homo sapiens, UniProt Q96D31); construct: c-myc (C); expressed in transfected cells; assay: Fluorescence-based assay of store-operated calcium entry in Orai1/STIM1 stable cells; assay type: cell-based; settings: 50% inhibition of Peak-Basal signal
Sequence (Q96D31 whole entry): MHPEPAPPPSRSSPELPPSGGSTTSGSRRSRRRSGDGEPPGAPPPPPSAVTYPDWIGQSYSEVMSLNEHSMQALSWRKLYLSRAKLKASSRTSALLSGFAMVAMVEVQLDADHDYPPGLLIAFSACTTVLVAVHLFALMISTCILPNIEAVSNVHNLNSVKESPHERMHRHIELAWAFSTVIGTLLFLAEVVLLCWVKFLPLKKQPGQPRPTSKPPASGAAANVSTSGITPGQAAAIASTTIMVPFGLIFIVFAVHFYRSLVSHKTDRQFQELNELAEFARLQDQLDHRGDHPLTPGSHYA
Record form. Attribute: IC50. Fill in for each entry.

O=C(Nc1scc(-c2ccc(Cl)cc2)c1C(=O)O)c1ccc2scnc2c1 :: ≤ 0.5 µM
O=C(Nc1scc(-c2ccc(Br)cc2)c1C(=O)O)c1cc2ccccn2n1 :: ≤ 0.5 µM
O=C(Nc1scc(-c2ccc(Br)cc2)c1C(=O)O)c1cn2ccccc2n1 :: 1 to 10 µM
O=C(CCc1cccs1)Nc1scc(-c2ccc(Cl)cc2)c1C(=O)O :: ≤ 0.5 µM
O=C(Nc1scc(-c2ccc(Cl)cc2)c1C(=O)O)c1cc(-c2ccccc2)on1 :: 0.5 to 1 µM
COc1cc(C)c(-c2csc(NC(=O)c3cc4ccccc4o3)c2C(=O)O)cc1C :: ≤ 0.5 µM
O=C(Nc1scc(-c2ccc(Cl)cc2)c1C(=O)O)c1cc2sccc2s1 :: ≤ 0.5 µM
O=C(Nc1scc(-c2ccc(Cl)cc2)c1C(=O)O)c1cc2nccnc2s1 :: ≤ 0.5 µM

Quick request: IC50 for each listed item, please.
1. O=C(Nc1scc(-c2ccc(Cl)cc2)c1C(=O)O)c1ccc([N+](=O)[O-])o1
2. O=C(Nc1scc(-c2ccc(Cl)cc2)c1C(=O)O)c1cc2ccccn2n1
3. O=C(Nc1scc(-c2ccc(Cl)cc2)c1C(=O)O)c1nc2ccccc2s1
4. O=C(Nc1scc(-c2ccc(Cl)cc2)c1C(=O)O)c1cnc2ccccc2n1

["≤ 0.5 µM", "≤ 0.5 µM", "≤ 0.5 µM", "≤ 0.5 µM"]

* * *

molecular target: recombinant human STIM1 and Orai1 (HEK-293 stable cells; JR251) (Homo sapiens); construct: c-myc (C); expressed in transfected cells; experiment: Fluorescence-based assay of store-operated calcium entry in Orai1/STIM1 stable cells; format: cell-based; conditions: 50% inhibition of Peak-Basal signal
METRIC_NAME: IC50

Below, each entry is followed by its recorded IC50 result.
O=C(O)c1c(-c2ccc(Cl)cc2)csc1NC(=O)C1CCc2ccccc2C1 (stereo not shown) [K] :: ≤ 0.5 µM
O=C(Nc1scc(-c2ccc(Cl)cc2)c1C(=O)O)c1cc2ccccc2nn1 [Y] :: 1 to 10 µM
O=C(Nc1scc(-c2ccc(Cl)cc2)c1C(=O)O)c1nc(C2CC2)cs1 [W] :: ≤ 0.5 µM

// input: 4 molecules below; output: IC50 for each
1. CC(Cc1ccccc1)C(=O)Nc1scc(-c2ccc(Br)cc2)c1C(=O)O (stereo not shown) [E]
2. O=C(Nc1scc(-c2ccc(Cl)cc2)c1C(=O)O)/C(F)=C/c1ccccc1Cl [U]
3. O=C(O)c1c(-c2ccc(Cl)cc2)csc1NC(=O)C(Cl)Cc1ccccc1 (stereo not shown) [D]
4. O=C(Nc1scc(-c2ccc(Br)cc2)c1C(=O)O)OCc1ccccc1 [S]

["≤ 0.5 µM", "1 to 10 µM", "≤ 0.5 µM", "1 to 10 µM"]
